Assign inhibition to each entry below.
# TESTED_SYSTEM: Tyrosine-protein phosphatase non-receptor type 1 (Homo sapiens) (UniProt P18031)
# Sequence (P18031 whole entry): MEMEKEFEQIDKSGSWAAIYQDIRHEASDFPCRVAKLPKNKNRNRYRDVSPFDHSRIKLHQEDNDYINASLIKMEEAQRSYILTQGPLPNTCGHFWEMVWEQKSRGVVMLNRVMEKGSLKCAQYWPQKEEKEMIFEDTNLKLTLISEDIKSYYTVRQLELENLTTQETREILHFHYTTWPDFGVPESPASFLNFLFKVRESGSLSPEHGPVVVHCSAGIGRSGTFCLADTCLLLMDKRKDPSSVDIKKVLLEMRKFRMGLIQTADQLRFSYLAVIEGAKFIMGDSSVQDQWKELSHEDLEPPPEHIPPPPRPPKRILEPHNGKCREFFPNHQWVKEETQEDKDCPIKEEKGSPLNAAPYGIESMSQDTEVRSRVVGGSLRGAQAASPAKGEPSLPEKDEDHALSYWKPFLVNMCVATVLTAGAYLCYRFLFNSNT
# EXPERIMENT: Inhibition of PTP1B assessed as p-nitrophenolate ion production at 100 uM pretreated for 10 mins measured after 30 mins
# value in %; strip the unit string

Input line: Would you kindly share the measured inhibition for CCOC(=O)C1=CC(c2ccc(Cl)cc2)C2=C(CC(C)(C)CC2=O)N1 (configuration not stated) ?
Output line: 53.8

Input line: Would you kindly share the measured inhibition for COc1ccc(C2C=C(c3ccccc3)NC3=C2C(=O)CC(C)(C)C3)cc1 (configuration not stated) ?
Output line: 71.8

Input line: Would you kindly share the measured inhibition for CC1(C)CC(=O)C2=C(C1)NC(C(=O)O)=CC2c1ccccc1 (configuration not stated) ?
Output line: 28.9

Input line: Would you kindly share the measured inhibition for COc1ccc(C2C=C(c3ccccc3)NC3=C2C(=O)CCC3)cc1 (configuration not stated) ?
Output line: 56.8

Input line: Would you kindly share the measured inhibition for CCOC(=O)C1=CC(c2ccc(F)cc2)C2=C(CC(C)(C)CC2=O)N1 (configuration not stated) ?
Output line: 87.2

Input line: Would you kindly share the measured inhibition for COc1ccc(C2=CC(c3ccccc3)C3=C(CC(C)(C)CC3=O)N2)cc1 (configuration not stated) ?
Output line: 53.4

Input line: Would you kindly share the measured inhibition for CCOC(=O)C1(O)CC(c2ccc(F)cc2)C2=C(CC(C)(C)CC2=O)O1 (configuration not stated) ?
Output line: 5.3

Input line: Would you kindly share the measured inhibition for COc1ccc(C2C=C(C(=O)O)NC3=C2C(=O)CC(C)(C)C3)cc1 (configuration not stated) ?
Output line: 35.4

Input line: Would you kindly share the measured inhibition for Cc1ccc(C2=CC(c3ccccc3)C3=C(CCCC3=O)N2)cc1 (configuration not stated) ?
Output line: 33.3

Input line: Would you kindly share the measured inhibition for CC1(C)CC(=O)C2=C(C1)NC(C(=O)O)=CC2c1ccc(Br)cc1 (configuration not stated) ?
Output line: 12.3

Input line: Would you kindly share the measured inhibition for CC1(C)CC(=O)c2c(-c3ccc(F)cc3)cc(-c3ccccc3)nc2C1 ?
Output line: 7.9

Input line: Would you kindly share the measured inhibition for CC1(C)CC(=O)C2=C(C1)NC(C(=O)O)=CC2c1ccc(Cl)cc1 (configuration not stated) ?
Output line: 25.4

Input line: Would you kindly share the measured inhibition for CCOC(=O)C1(O)CC(c2ccccc2)C2=C(CC(C)(C)CC2=O)O1 (configuration not stated) ?
Output line: 21.3

Input line: Would you kindly share the measured inhibition for CC1(C)CC(=O)C2=C(C1)NC(c1ccccc1)=CC2c1ccc(Cl)cc1 (configuration not stated) ?
Output line: 84.9

Input line: Would you kindly share the measured inhibition for CC1(C)CC(=O)C2=C(C1)NC(c1ccccc1)=CC2c1ccco1 (configuration not stated) ?
Output line: 82.5

Input line: Would you kindly share the measured inhibition for CC1(C)CC(=O)C2=C(C1)NC(C(=O)O)=CC2c1ccc(F)cc1 (configuration not stated) ?
Output line: 27

Input line: Would you kindly share the measured inhibition for CCOC(=O)C1(O)CC(c2ccc(OC)cc2)C2=C(CC(C)(C)CC2=O)O1 (configuration not stated) ?
Output line: 13.6

Input line: Would you kindly share the measured inhibition for O=C1CCCC2=C1C(c1ccc(F)cc1)C=C(c1ccccc1)N2 (configuration not stated) ?
Output line: 70.3

Input line: Would you kindly share the measured inhibition for CC1(C)CC(=O)C2=C(C1)NC(c1ccccc1)=CC2c1c[nH]c2ccccc12 (configuration not stated) ?
Output line: 54.5

Input line: Would you kindly share the measured inhibition for O=C1CCCC2=C1C(c1ccccc1)C=C(c1ccccc1)N2 (configuration not stated) ?
Output line: 51.2

Input line: Would you kindly share the measured inhibition for CCOC(=O)C1(O)CC(c2ccc(Br)cc2)C2=C(CC(C)(C)CC2=O)O1 (configuration not stated) ?
Output line: 4.7

Input line: Would you kindly share the measured inhibition for Cc1ccc(C2=CC(c3ccccc3)C3=C(CC(C)(C)CC3=O)N2)cc1 (configuration not stated) ?
Output line: 62.3

Input line: Would you kindly share the measured inhibition for COc1ccc(-c2cc(-c3ccccc3)nc3c2C(=O)CC(C)(C)C3)cc1 ?
Output line: 9.1

Input line: Would you kindly share the measured inhibition for CC1(C)CC(=O)C2=C(C1)NC(c1ccccc1)=CC2c1ccc([N+](=O)[O-])cc1 (configuration not stated) ?
Output line: 84.7

Input line: Would you kindly share the measured inhibition for CC1(C)CC(=O)c2c(-c3ccc(Cl)cc3)cc(-c3ccccc3)nc2C1 ?
Output line: 18.6

Input line: Would you kindly share the measured inhibition for CC1(C)CC(=O)C2=C(C1)NC(c1ccccc1)=CC2c1ccccc1 (configuration not stated) ?
Output line: 41.8

Input line: Would you kindly share the measured inhibition for CCOC(=O)C1=CC(c2ccc(OC)cc2)C2=C(CC(C)(C)CC2=O)N1 (configuration not stated) ?
Output line: 66.7

Input line: Would you kindly share the measured inhibition for CCOC(=O)C1=CC(c2ccccc2)C2=C(CC(C)(C)CC2=O)N1 (configuration not stated) ?
Output line: 43.3

Input line: Would you kindly share the measured inhibition for O=C1CCCC2=C1C(c1ccc(Cl)cc1)C=C(c1ccccc1)N2 (configuration not stated) ?
Output line: 24.7

Input line: Would you kindly share the measured inhibition for CC1(C)CC(=O)C2=C(C1)NC(c1ccccc1)=CC2c1ccc(F)cc1 (configuration not stated) ?
Output line: 88.2

Input line: Would you kindly share the measured inhibition for CCOC(=O)C1(O)CC(c2ccc(Cl)cc2)C2=C(CC(C)(C)CC2=O)O1 (configuration not stated) ?
Output line: 16.5

Input line: Would you kindly share the measured inhibition for CCOC(=O)C1=CC(c2ccc(Br)cc2)C2=C(CC(C)(C)CC2=O)N1 (configuration not stated) ?
Output line: 65.6

Data origin, for the record: ChEMBL document CHEMBL1165941
